- Tested Target: hMCHR1 (Homo sapiens)
- Sequence (Q99705 whole entry): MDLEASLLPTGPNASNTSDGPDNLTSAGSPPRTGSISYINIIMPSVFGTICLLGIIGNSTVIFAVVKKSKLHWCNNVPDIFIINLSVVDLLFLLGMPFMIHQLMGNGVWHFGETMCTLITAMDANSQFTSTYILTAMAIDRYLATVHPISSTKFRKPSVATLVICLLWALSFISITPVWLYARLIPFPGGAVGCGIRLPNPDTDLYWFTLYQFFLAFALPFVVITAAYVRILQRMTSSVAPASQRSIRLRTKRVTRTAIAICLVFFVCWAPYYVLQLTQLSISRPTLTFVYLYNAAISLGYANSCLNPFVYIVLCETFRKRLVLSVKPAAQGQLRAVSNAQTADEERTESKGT
- Procedure Summary: MCHR1 pIC50 Determination FLIPR Assay
- Measurement Setup: HEK293 cells stably transfected with hMCHR1; MCH challenge at 4xEC50; in at least one experimental run
Kindly supply the reported pIC50 values for the records listed here.
Give bare numbers, as −log10 of the molar value.

// worked examples, pIC50 included
Compound: O=C1CC2(CCCN(c3ccc(-n4ccc(OCc5ccc(Cl)cn5)cc4=O)cn3)C2)C(=O)N1 (stereo not drawn)
Tested Target: hMCHR1 (Homo sapiens)
pIC50: 7.30
//
Compound: O=c1cc(OCc2ccc(Cl)cn2)ccn1-c1ccc(N2CCC3(CC2)CNC3)nc1
Tested Target: hMCHR1 (Homo sapiens)
pIC50: 7.27

In: # input compound: O=C1N(c2ccc(-n3ccc(OCc4ccc(Cl)cn4)cc3=O)cn2)CC12CCNCC2 ; wanted: its pIC50
Out: 7.31
